experiment: viability loss in pontine glioma line – cell-based, SU-DIPG-IV, MIPE4.0, CellTiter-Glo, qHTS, dose response (AID 1347063); settings: CellTiter-Glo ATP luminescence;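 also: compound exposure lasted 48 hours before the viability readout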
Records with an inconclusive call do not appear. The source made the active and inactive calls. The limit is not given here; nearly all actives have AC50 up to about 30 µM.
Allowed answers: active, inactive

molecule	qualitative-label
CCNC(=O)Nc1ccc(-c2nc3c(c(N4CCOC[C@@H]4C)n2)CCN(C2COC2)C3)cc1	active
Nc1cccc2c1CN([C@H]1CCC(=O)NC1=O)C2=O	inactive

Entry Cc1c(CCOc2ccc(C(=O)O)cc2)c2cc(Cl)ccc2n1C(c1ccccc1)c1ccccc1 : call = ?
inactive

Entry CCc1ccc(C(=O)Nc2cc(CN3CCN(C)CC3)cc(C(F)(F)F)c2)cc1C#Cc1cnc2ccnn2c1 : call = ?
active

Entry O=C(Nc1c(Cl)cncc1Cl)c1ccc(OC(F)F)c(OCC2CC2)c1 : call = ?
inactive

Entry CC(=O)NCC(=O)N1[C@@H]2CC[C@H]1c1ccc(Nc3ncc(C(F)(F)F)c(NC4CCC4)n3)cc12 : call = ?
active

Entry CN(C)C/C=C/C(=O)Nc1cc2c(Nc3ccc(F)c(Cl)c3)ncnc2cc1O[C@H]1CCOC1 : call = ?
active

Entry CNC1[C@@H](O)C(O[C@@H]2C(O)C(O[C@H]3O[C@H]([C@@H](C)NC)CC[C@H]3N)[C@@H](N)C[C@H]2N)OC[C@]1(C)O (some centres undefined) : call = ?
inactive

Entry Cc1cc(Nc2cc(N3CCN(C)CC3)nc(/C=C/c3ccccc3)n2)n[nH]1 : call = ?
active

----------
test: viability loss in pontine glioma line – cell-based, SU-DIPG-XIII, MIPE5.0, CellTiter-Glo, qHTS, dose response (AID 1347064); conditions: CellTiter-Glo ATP luminescence;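 as to AC50: cells exposed to compound for 48 hours before the viability read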
Records with an inconclusive call do not appear. The source made the active and inactive calls. The limit is not given here; nearly all actives have AC50 up to about 23 µM.
Allowed answers: active, inactive

Worked examples, 3 compounds total:
compound	qualitative-label
Nc1ncnc2c1c(-c1cccc(OCc3ccccc3)c1)cn2C1CC(CN2CCC2)C1 (stereo not drawn)	active
Cc1nc(NC(=O)N2CCC[C@H]2C(N)=O)sc1-c1csc(C(C)(C)C)n1	active
CCN(C(=O)c1c(O)c2c(Cl)cccc2n(C)c1=O)c1ccccc1	inactive

Entry CN(C)CC(C)(C)CNc1nn2c(-c3ccccc3)nnc2cc1C1CCC1 : call = ?
inactive

Entry Cc1cc(C(=O)Nc2cc(Nc3ccc4c(/C=C/c5ccccn5)n[nH]c4c3)ccc2F)n(C)n1 : call = ?
active

Entry C[N+](C)(C)CC(=O)O : call = ?
inactive

Entry NC(CC1c2ccccc2Oc2ccccc21)(C(=O)O)C1CC1C(=O)O (stereo not drawn) : call = ?
inactive

Entry Cc1c(F)cccc1NC(=O)Nc1ccc(Cl)c(S(=O)(=O)[C@H]2CCCNC2)c1O : call = ?
inactive

Entry CC(C)c1cc(C(=O)N2Cc3ccc(CN4CCN(C)CC4)cc3C2)c(O)cc1O : call = ?
active

----------
assay: viability loss in pontine glioma line – cell-based, SU-DIPG-XVII, MIPE5.0, CellTiter-Glo, qHTS, dose response (AID 1347060); details: CellTiter-Glo ATP luminescence;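 as to AC50: cells exposed to compound for 48 hours before viability readout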
Records with an inconclusive call do not appear. Activity calls are given as the source filed them. The limit is not given here; nearly all actives have AC50 up to about 26 µM.
measure: AC50

Study these solved cases before continuing.
molecule	AC50
CCN(C(=O)c1ccccc1OC)c1cc2c(cc1N1CCNC[C@H]1C)n(C)c(=O)n2C	inactive
CCOc1cc2ncc(C#N)c(Nc3ccc(OCc4ccccn4)c(Cl)c3)c2cc1NC(=O)/C=C/CN(C)C	14.8 µM (active)
C[C@@H](O)[C@@H](C)Oc1nc(Nc2ccc(S(=N)(=O)C3CC3)cc2)ncc1C(F)(F)F (stereo not given in full)	20.9 µM (active)
COc1cc(OC)cc(N2CCN(C(=O)Nc3nc4cc(F)ccc4nc3OC)CC2)c1	0.833 µM (active)
COc1cc(-c2cn(C)c(=O)c3cnccc23)c(OC)cc1CN(C)C	inactive
COc1cc(Nc2ncc(F)c(Nc3ccc4c(n3)N(COP(=O)(O)O)C(=O)C(C)(C)O4)n2)cc(OC)c1OC	1.05 µM (active)
Cc1cc2c(F)c(Oc3ncnn4cc(OCC(C)OC(=O)C(C)N)c(C)c34)ccc2[nH]1 (stereo not given)	16.6 µM (active)
CN[C@@H](C)C(=O)N[C@H](C(=O)N1CCC[C@H]1C(=O)Nc1sc(-c2ncco2)nc1-c1ccccc1)C1CCCCC1	inactive
CCn1cc(-c2ccnc3[nH]c(-c4cccc(CN(C)C)c4)cc23)c(-c2ccc(NC(=O)N(C)C)cc2)n1	0.59 µM (active)
c1cncc(CN2CCC(n3ncc4c(N5CCOCC5)nc(-c5ccc6[nH]ccc6c5)nc43)CC2)c1	7.42 µM (active)

Would you mind telling me what AC50 value was observed for Cc1[nH]c2ccccc2c1CCNCc1ccc(/C=C/C(=O)NO)cc1 ?
1.18 µM (active)

----------
Catalogue of compounds with associated viability
test: drug combination growth inhibition, ovarian cancer – cell-based, oncology-focused library, rucaparib conditional, profiling panel (AID 1508598); details: patient-derived ovarian cancer cells, CellTiter-Glo viability, 144 h; at 1.25 µM; OCI-P5x cells; with rucaparib 20 µM; active compounds read low; 100% = cells with rucaparib alone
Use % as the unit, but write only the number.

Study these solved cases before continuing.
compound	measure	readout-value
COc1ccc2cc(-c3nc(-c4ccc(S(C)=O)cc4)[nH]c3-c3ccncc3)ccc2c1 (centres undefined)	viability	106
CC(C)CC(=O)Nc1n[nH]c2c1CN(C(=O)C1CCN(C)CC1)C2(C)C	viability	75.7
Cc1nnc(C(C)C)n1C1CC2CCC(C1)N2CC[C@H](NC(=O)C1CCC(F)(F)CC1)c1ccccc1 (some centres undefined)	viability	98.8
N#Cc1c(NC(=O)c2cccc3ccccc23)sc2c1CCCC2	viability	65.1
CC1(COc2ccc3c(c2)ncn3-c2ccc3cccc(N4CCC(N)CC4)c3n2)COC1	viability	142

Would you mind telling me what viability value was observed for CNC(=O)c1cc(Oc2ccc(NC(=O)Nc3cc(C(C)(C)C)nn3-c3ccc4ncccc4c3)c(F)c2)ccn1 ?
29.9

Would you mind telling me what viability value was observed for Cc1cc(N2CCOCC2)cc2[nH]c(-c3c(NC[C@@H](O)c4cccc(Cl)c4)cc[nH]c3=O)nc12 ?
41.4

Would you mind telling me what viability value was observed for CN(NC(=O)CC(=O)NN(C)C(=S)c1ccccc1)C(=S)c1ccccc1 ?
82.2

Would you mind telling me what viability value was observed for O=c1cc(N2CCOCC2)oc2c(-c3cccc4c3sc3ccccc34)cccc12 ?
95.4

----------
assay: P. berghei load reduction in hepatocytes – cell-based, HepG2, luciferase luminescence, HepG2 viability, primary screen (AID 624349);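 also: 100% = mean of DMSO negative control wells on the same plate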; conditions: P. berghei liver stage in HepG2, luciferase luminescence, concentration not given here
Active and inactive are the calls of the source. No stated cut-off is given here; in the data, active means parasite load remaining mostly below about 12% (no sharp cut-off); inactive means mostly above about 10%.
Allowed answers: class 1 for active, class 0 for inactive

molecule	qualitative-label
Nc1cccc(-c2cc3c(Oc4cccc(O)c4)ncnc3[nH]2)c1	class 0

Entry O=c1cc(N2CCOCC2)nc2c3ccccc3ccn12 : call = ?
class 0

Entry Cc1[nH]c(/C=C2\C(=O)Nc3ccc(S(=O)(=O)N(C)c4cccc(Cl)c4)cc32)c(C)c1C(=O)N1CCN(C)CC1 : call = ?
class 0

Entry O=C(Nc1nc2ccccc2n1CCN1CCOCC1)c1cccc([N+](=O)[O-])c1 : call = ?
class 0

Entry Oc1cccc(-c2nc(N3CCOCC3)c3oc4ncccc4c3n2)c1 : call = ?
class 0

Entry O=C1c2ccccc2-[n+]2ccc3c([nH]c4ccccc43)c21 : call = ?
class 0

Entry CC(C)NC[C@H](O)c1ccc(O)c(O)c1 : call = ?
class 0

----------
experiment: viability loss in pontine glioma line – cell-based, SU-DIPG-IV, MIPE4.0, CellTiter-Glo, qHTS, dose response (AID 1347063); details: CellTiter-Glo ATP luminescence;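 also: compound exposure lasted 48 hours before the viability readout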
Results filed as inconclusive are left out. Activity calls are given as the source filed them. The limit is not given here; nearly all actives have AC50 up to about 30 µM.
measure: AC50

Study these solved cases before continuing.
molecule	AC50
CCOc1cc2ncc(C#N)c(Nc3ccc(F)c(Cl)c3)c2cc1NC(=O)/C=C/CN(C)C	0.833 µM (active)
O[C@@H](COc1cccc2ncccc12)CN1CCN(C2c3ccccc3[C@@H]3[C@H](c4ccccc42)C3(F)F)CC1 (stereo not given in full)	16.6 µM (active)
Cc1ccc(F)c(NC(=O)Nc2ccc(-c3cccc4[nH]nc(N)c34)cc2)c1	14.8 µM (active)
CC1=C(CO)C(=O)O[C@@H]([C@@H](C)[C@H]2CC[C@H]3[C@@H]4C[C@H]5O[C@]56[C@@H](O)C=CC(=O)[C@]6(C)[C@H]4CC[C@]23C)C1	0.332 µM (active)

Please examine the following record next.
Would you mind telling me what AC50 value was observed for Cc1cc(Nc2nc(N[C@@H](C)c3ccc(F)cc3)c(C#N)cc2F)n[nH]1 ?
5.9 µM (active)

----------
test: P. berghei load reduction in hepatocytes – cell-based, HepG2, luciferase luminescence, HepG2 viability, primary screen (AID 624349);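 also: 100% = mean of DMSO negative control wells on the same plate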; details: P. berghei liver stage in HepG2, luciferase luminescence, concentration not given here; active compounds read low
Bridge positions count the residues as written; N and C are the ends. Square brackets hold non-standard residues; d marks the D form. Peptide text beside a SMILES is read from it. * marks the point of attachment. X2 = CCC(C)C(N)C1=NC(C(=O)*)CS1; dOrn = NCCC[C@@H](N)C(=O)O
measure: parasite load remaining (%)
Use % as the unit, but write only the number.

Study these solved cases before continuing.
compound	parasite load remaining (%)
CC(C)CN(C[C@@H](O)[C@H](Cc1ccccc1)NC(=O)O[C@H]1CCOC1)S(=O)(=O)c1ccc(N)cc1	15.6
C[C@@H](O)[C@@H]1NC(=O)[C@H](CCCCN)NC(=O)[C@@H](Cc2c[nH]c3ccccc23)NC(=O)[C@H](Cc2ccccc2)NC(=O)[C@@H](NC(=O)[C@H](N)Cc2ccccc2)CSSC[C@@H](C(=O)N[C@H](CO)[C@@H](C)O)NC1=O	22.8
O=[N+]([O-])c1ccc(-c2nc(-c3ccc(F)cc3)c(-c3ccncc3)[nH]2)cc1	29.6

Would you mind telling me what parasite load remaining value was observed for CCC(C)C(N)C1=NC(C(=O)N[C@@H](CC(C)C)C(=O)N[C@H](CCC(=O)O)C(=O)N[C@H](C(=O)N[C@H]2CCCCNC(=O)[C@H](CC(N)=O)NC(=O)[C@@H](CC(=O)O)NC(=O)[C@H](Cc3cnc[nH]3)NC(=O)[C@@H](Cc3ccccc3)NC(=O)[C@H]([C@@H](C)CC)NC(=O)[C@@H](CCCN)NC2=O)[C@@H](C)CC)CS1 (some centres not stated) (X2-L[dE]IK[dOrn]I[dF]H[dD]N; lactam 4-C) ?
69.3

Would you mind telling me what parasite load remaining value was observed for Cc1ccc(O)c(C(CCN(C(C)C)C(C)C)c2ccccc2)c1 (configuration not stated) ?
53.2

Would you mind telling me what parasite load remaining value was observed for CC[C@H](CC[C@@H](C)[C@H]1CC[C@H]2[C@@H]3CC=C4C[C@@H](O)CC[C@]4(C)[C@H]3CC[C@]12C)C(C)C ?
99.6

Would you mind telling me what parasite load remaining value was observed for Cc1ccc([N+](=O)[O-])cc1S(=O)(=O)N(C)/N=C/c1cnc2ccc(Br)cn12 ?
40.5
